Attribution: ChEMBL document CHEMBL3433997

Biological target: Hexose transporter 1 (Plasmodium falciparum) (UniProt O97467)
Assay: ST_JUDE_LEISH: Cytotoxicity at 2uM final concentration against transgenic Leishmania Mexicana promastigotes LmPfHT that are glucose transport deficient and complemented with the Plasmodium falciparum hexose transporter. Activity is measured by DNA content using SYBR green in vitro
Assay type: functional
The reader will find reported inhibition values listed item by item below.
measured quantity: inhibition (%)

O=C(Nc1ccc(F)c(Cl)c1)NC1CCN(c2ccnc3cc(Cl)ccc23)C1 (stereo not given)    6.38
CCCCCCNC(=N)c1ccc2[nH]c(-c3ccc(O)cc3)nc2c1    4.17
CCOc1c(CCNCCCCNCCc2ccc3ccccc3c2OCC)ccc2ccccc12    112
Cc1cc(N[C@@H](CC(C)C)C(=O)NCc2cccc(F)c2)nc(Nc2ccccc2)n1    2.87
O=C(Nc1cccnc1)c1cc(-c2cccnc2)nc2ccc(Cl)cc12    2.76

---

Target: Solute carrier family 2, facilitated glucose transporter member 1 (Homo sapiens) (UniProt P11166)
Sequence (P11166 whole entry): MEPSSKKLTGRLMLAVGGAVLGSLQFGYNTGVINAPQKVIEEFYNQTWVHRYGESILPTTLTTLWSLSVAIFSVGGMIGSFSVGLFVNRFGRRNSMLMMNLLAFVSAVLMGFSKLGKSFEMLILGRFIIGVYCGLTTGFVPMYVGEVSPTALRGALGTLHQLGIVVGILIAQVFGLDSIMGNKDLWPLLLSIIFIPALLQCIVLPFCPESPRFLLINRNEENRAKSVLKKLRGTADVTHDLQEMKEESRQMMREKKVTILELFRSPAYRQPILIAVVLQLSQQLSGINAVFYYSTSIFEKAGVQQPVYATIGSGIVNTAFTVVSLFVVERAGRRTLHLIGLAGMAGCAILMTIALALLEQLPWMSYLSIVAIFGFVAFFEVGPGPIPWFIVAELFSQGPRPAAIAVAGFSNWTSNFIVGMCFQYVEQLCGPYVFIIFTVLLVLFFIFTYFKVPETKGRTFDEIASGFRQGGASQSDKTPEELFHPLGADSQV
Assay: ST_JUDE_LEISH: Cytotoxicity at 2uM final concentration against transgenic Leishmania Mexicana promastigotes LmGLUT1 that are glucose transport deficient and complemented with the human glucose transporter GLUT1. Activity is measured by DNA content using SYBR green in vitro
Format: functional
measured quantity: inhibition (%)

CC(C)Sc1nc2c(c(=O)n1Cc1ccco1)C1(CCCCC1)Cc1ccccc1-2    2.09
Cc1cc(N(C)C)nc(Nc2ccc(NC(=O)c3ccc(Br)o3)cc2)n1    7.73
Cc1cccc2nc(-c3cccc(-c4ccc(NC(=O)CCc5c[nH]cn5)cc4)c3)[nH]c12    7.76
COc1ccc2nccc([C@@H](O)CN3CCC(NC(=O)/C=C/c4ccc5ccccc5n4)CC3)c2c1    15.2
O=C(Nc1ccc(Br)cc1)c1cc(Br)ccc1NS(=O)(=O)c1ccc(C(F)(F)F)cc1    0.82
CCCCCCCCCCS(=O)(=O)N[C@H](COCc1cccc(Oc2ccccc2)c1)COP(=O)(O)OC    0.47
Fc1ccc(NC(S)=NN=Cc2ccccn2)cc1    4.22
Cc1cccc2nc(-c3ccc(-c4cccc(C(=O)NCCc5cn(C)cn5)c4)s3)[nH]c12    1.8
O=C(c1ccco1)N1CCN(c2ccc([N+](=O)[O-])c(NC3CC3)c2)CC1    0.6
CCCCCCCCc1c(C)nc(C)c(I)c1O    -1.12
Cc1ccc(OCCCCON2C(=N)N=C(N)NC2(C)C)cc1C    1.02
CCOC(=O)c1ccc(N2CCCCC2)c(NC(=O)C(Cl)(Cl)Cl)c1    -2.66
O=C(NCc1cccc2ccccc12)c1ccc(CNC2CCN(Cc3ccccc3)CC2)cc1    1.65
Cc1cccc2nc(-c3ccc(-c4ccc(CN5CCCC(N)C5)cc4)s3)[nH]c12 (stereo not given)    0.2
O=C(Nc1cc(Cl)ccc1O)c1cnn2c(C(F)(F)F)cc(-c3cccs3)nc12    2.61
COc1ccc(-c2ccc(NC(=O)c3ccc(C#N)cc3)cc2)cc1CN1CCCC1    1.22
O=C(NC1CC1)c1cnc(N2CCC(c3ccccc3)CC2)c(Cl)c1    2.86
O=C1OC2(CCN(Cc3cccc(-c4ncc[nH]4)c3)CC2)CN1CCNCc1ccccc1    1.81
CC(C)(C)SC1SC(SC(C)(C)C)C(OC(=O)c2ccccc2)C(OC(=O)c2ccccc2)C1OC(=O)c1ccccc1 (stereo not given)    -0.52
O=c1c2cccnc2sn1-c1ccccc1    0.94
COc1cc(C(=O)NC2CC(C)(C)NC(C)(C)C2)ccc1-c1cc2cc(Cl)c(Cl)cc2[nH]1    1.69
CC(Cc1ccc(OCC(=O)NCC2CCN(CCc3cccc(Cl)c3)CC2)cc1)NCCc1cccc(Cl)c1 (stereo not given)    3.07
O=S(=O)(NCCN1CCCC1)c1cccc(-c2cccc(CNCCc3cccs3)c2)c1    11.7
Cc1cc(N[C@@H](Cc2ccccc2)C(=O)Nc2ccccc2)nc(NCC2CCCCC2)n1    12.8
CNC(=O)c1cnc(Nc2ccc(N3CCN(C)CC3)cc2)nc1Nc1cccc([N+](=O)[O-])c1    2.86
COc1ccc(CNCc2ccccc2)cc1-c1ccc(OC)c(S(=O)(=O)NCCN2CCCC2)c1    -0.27
COCCCNC(=O)c1ccc(O)c(-c2cc(Cl)cc(Cl)c2)c1    0.32
CCN1CCN(c2ccc(Nc3c4ccccc4nc4ccccc34)cc2)CC1    7.35
COc1ccc2ncc(Cl)c([C@H](O)CN3CCC(NCc4cc5c(cn4)OCCO5)CC3)c2c1    11
COc1ccc(-c2c(-c3ccc(OCc4ccccc4)cc3O)n[nH]c2C(F)(F)F)cc1    3.36
CCc1cc(Br)c(CNCCCNc2cc(=O)c3ccccc3[nH]2)s1    0.41
CCCC(=O)Nc1ccc(OCCCCN(CC(C)(C)C)c2ccc(C#N)c(C(F)(F)F)c2)cc1    1.48
COc1ccc(-c2ccccc2OCCCNc2nc(NCCc3ccc(O)cc3)nc(N3CCNCC3)n2)cc1    1.12
Cc1cc(=O)[nH]c(-n2nc(C)cc2NC(=O)C2(c3ccc(Cl)cc3)CCCC2)n1    61.6
O=C(NCCCCCN1CCC(c2c[nH]c3ccccc23)CC1)c1ccc(-c2ccccc2)nc1    2.41
COC(=O)c1cc(C(O)CNC(C)CCCc2ccccc2)ccc1O (stereo not given)    0.96
O=C(c1ccccc1)N(Cc1ccccc1-c1ccc(CNCCc2ccccc2)cc1)C1CCN(Cc2ccccc2)CC1    12.2
CC(=O)Nc1nc(C(=O)Nc2cccc(-c3ccc(-c4nc5cccc(C)c5[nH]4)s3)c2)cs1    6.86
Cc1cc(NCCCCCCNc2cc(C)nc3c(C)cccc23)c2cccc(C)c2n1    3.76
CC(=O)N1c2ccccc2C(C)=CC1(C)C    -0.17

---

Molecular target: Hexose transporter 1 (Plasmodium falciparum)
Assay: ST_JUDE_LEISH: Cytotoxicity at 2uM final concentration against transgenic Leishmania Mexicana promastigotes LmPfHT that are glucose transport deficient and complemented with the Plasmodium falciparum hexose transporter. Activity is measured by DNA content using SYBR green in vitro
Type: functional
Below: a set of entries, each annotated with reported inhibition.
measured quantity: inhibition (%)

CC(C)CC(NC(=O)c1cc2ccccc2s1)C(=O)N1CCCCCC1c1ccc(C(C)(C)C)cc1 (stereo not given)    -0.83
N#Cc1cccc(NC(=O)Nc2ccc(-c3cccc(-c4nc5cc(F)ccc5[nH]4)c3)cc2)c1    1.58
Cc1cc(NC(=O)c2ccsc2)ccc1OC1CCN(Cc2ccc(F)cc2)CC1    2.48
COC(=O)c1cccc(CNCc2ccc(-c3ccc(-c4nc5cc(C(F)(F)F)ccc5[nH]4)s3)cc2)c1    2.29
COC(=O)c1cccc(CNCc2cccc(-c3cccc(-c4nc5cccc(C)c5[nH]4)c3)c2)c1    8.21
CCCCN(CCCC)Cc1cc(Nc2ccnc3cc(Cl)ccc23)ccc1O    8.01
OCCCCCCNc1nc(NCc2ccccc2-c2ccc(C(F)(F)F)cc2)nc(N2CCNCC2)n1    -1.2
Nc1c2ccccc2nc2cc([N+](=O)[O-])ccc12    9.98
COc1ccc(CN2CCCN(Cc3ccc(C(=O)Nc4ccc(Cl)cc4)cc3)CC2)cc1    5.51
CCOc1cc(Cc2cnc(N)nc2N)cc(OC)c1OC    -0.5
Oc1cccc(/C=N/Nc2ccnc3cc(Cl)ccc23)c1    0.91
Cc1cccc2c(CON3C(N)=NC(N)=NC3(C)C)cccc12    1.67
Clc1ccc2c(N3CCN(CCN4CCN(c5ccnc6cc(Cl)ccc56)CC4)CC3)ccnc2c1    0.23
CC(C)(C)c1ccc(CN2CCCCC(NC(=O)c3cc(-c4ccccc4F)cs3)C2)cc1 (stereo not given)    -0.56
O=C(Nc1cccc(-c2ccc(-c3nc4cc(F)ccc4[nH]3)cc2)c1)c1ccoc1    1.14
CC(c1cccc(S(=O)(=O)NCc2cccc(C(F)(F)F)c2)c1)N1CCC(N2CCCCC2)CC1 (stereo not given)    7.23
OC1CCCN(Cc2cccc(-c3ccc(-c4nc5cc(F)ccc5[nH]4)cc3)c2)C1 (stereo not given)    3.92
CN(C)CCOc1ccc(-c2cc(-c3ccnc(N)n3)c(-c3ccc(Cl)c(O)c3)o2)cc1    1.5
CCCCCCCCCN(CCC)C(=O)[C@@H]1OC(C(=O)OC(c2ccccc2)c2ccccc2)=C[C@H](NC(=O)OC(C)(C)C)[C@H]1NC(C)=O    2.98
Cc1cc(F)ccc1C1CCN(CCCCNC(=O)c2ccc(NC(=O)c3ccc(Cl)cc3)cc2)CC1    0.36
CC(C)c1ccc(NC(=O)N2CCc3ccc(OCCN(C(C)C)C(C)C)cc32)c(Br)c1    0.76
Cc1cccc(-c2cc3cc(Nc4ccnc5cc(-c6nccs6)ccc45)ccc3[nH]2)c1    -0.37
COc1ccc2c(=NN=Cc3ccncc3)cc(C)[nH]c2c1    3.94
O=C(Nc1ccc(-c2ccccc2)s1)N[C@H]1CCN(Cc2ccc(OCCCN3CCCCC3)cc2)C1    1.34
COc1ccc(C(=O)NCc2ccc(N)nc2C)cc1Nc1ncc(-c2cccc(N(C)C)c2)cn1    -1.36
FC(F)(F)c1ccc2[nH]ccc(=NN=Cc3ccc(Cl)cc3)c2c1    3.11
c1csc(-c2nc(NCC3CCCO3)ncc2-c2ccsc2)n1 (stereo not given)    2.71
O=C(Nc1ccc(SC(F)(F)F)cc1)Nc1ccnc2ccccc12    -0.22
O=S(=O)(Nc1ccc(CCN2CCC(N3CCCCC3)CC2)cc1)c1cccc(C(F)(F)F)c1    7.5
CCc1c(CCNCCCCCCNCCc2ccc(OC)c(OC)c2C)ccc(OC)c1OC    9.23
O=C(Nc1ccc2c(c1)CCC2)c1cccc(N2CCN(c3ccncc3)CC2)c1    4.51
Cc1ccc(C(=O)N2CCN(Cc3nccs3)CC2)cc1    -0.14
CCN(CC)CCNC(=O)c1ccc(NC(=O)c2cc(-c3ccncc3)nc3ccccc23)cc1    -0.76
N=C(N)NCCCN(Cc1ccccc1)c1ccc(Cl)cc1    4.12
O=C(NCCCc1ccccc1)c1ccc(O)c(-c2cc(Cl)cc(Cl)c2)c1    4.32
CN(C)CCN(C)C(=O)c1cc(-c2ccncc2)c(-c2ccc(Cl)c(O)c2)o1    8.13
Cc1cc(NC(=O)Nc2cccc(C#N)c2)c2ccccc2n1    4.11
N=c1cc(C=Cc2ccc(O)cc2)[nH]c2ccccc12    4.1
Cc1cc(C(=O)Nc2ccc3c(ccn3C3CCCN(Cc4ccc(C(F)(F)F)cc4F)CC3)c2)no1 (stereo not given)    0.5
CO/C(=C\C=C\c1cc2cc(Cl)c(Cl)cc2[nH]1)C(=O)NCCCN1CCN(c2cccc(OC)c2)CC1    8.04
